Each entry below lists one item and its recorded solubility value.
Assay: Peptide solubility evaluation: dissolution in DMSO, dilution in D5W with or without succinate
Type: physicochemical
Settings: Table 4; symbol X not defined; peptides dissolved at 50 mg/ml in 100% DMSO; read-out: Solubility in DMSO
Description: In a representative procedure, peptides were weighed and corrected for % peptide content, and then dissolved in DMSO to a concentration of 50 mg/mL. The DMSO/Peptide solution was then diluted with 5 mM sodium succinate in D5W to a 2 mg/mL peptide concentration. Additional peptide solubility conditions were tested. Peptides CS6709, CS6712, CS6720, CS6726, and CS6783 were weighed at approximately 10 mg each. […]
parameter_measured: solubility

substance	value
H-LTDLPGRIRVAPQQNDLDSPQQISISNAE-OH [CS6709]	< 50 mg/mL
H-SYDSVIRELLQKPNVRVVVL-OH [CS7425]	< 50 mg/mL

* * *

test: pH of peptide solutions; type: physicochemical
Where no end group is shown, it is not given here.
Each entry below lists one item and its recorded pH of peptides in DMSO/D5W/5 mM Succinate and Hiltonol value.
parameter_measured: pH of peptides in DMSO/D5W/5 mM Succinate and Hiltonol

substance	value
H-AESAQRQGPLGGGEQSANEF-OH [CS7417]	6.5
H-LLTDRNTSGTTFTLLGVSDYPELQVP-OH [CS7409]	6.62
H-DSAVDKGHPNRSALSLTPGLRIGPSGLFLVFLA-OH [CS7411]	6.94
KGASLDAGWGSPRWTTTRMTSASAGRSTRA [CS7414]	6.99
H-VEQGHVRVGPDVVTHPAFLV-OH [CS7427]	6.52
H-LRVFIGNIAVNHAPVSLRPGLGLPPGAPPGTVP-OH [CS7412]	6.96
H-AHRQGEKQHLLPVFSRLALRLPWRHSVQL-OH [CS6941]	6.78
H-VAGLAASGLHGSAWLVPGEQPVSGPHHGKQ-OH [CS6931]	6.66
H-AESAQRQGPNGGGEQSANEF-OH [CS7416]	6.54
H-SGQPAPEETVLFLGLLHGLLLILRRLRGG-OH [CS6937]	6.76
H-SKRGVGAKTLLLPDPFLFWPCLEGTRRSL-OH [CS6934]	6.79
H-SYDSVIRELLQKPNVRVVVL-OH [CS7425]	6.65
H-ALSLTPGLRIGPSGLFLVFLAESAVDKGHPNRS-OH [CS7410]	6.88
H-VQLSIQDVIRRARLSTVPTAQRVALRSGWI-OH [CS7413]	7.02
H-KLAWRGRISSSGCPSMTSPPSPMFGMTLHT-OH [CS6919]	6.99
H-LLTDRNTSGTTFTLLGVSDYPELQVPIPQAGLG-OH [CS7408]	6.75
H-IGALNPKRAAFFAEHYESWE-OH [CS7420]	6.56
H-YLLPKTAVVLRCPALRVRKP-OH [CS7418]	6.96
H-LPVFIGNIAVNHAPVSLRPGLGLPPGAPPGTVP-OH [CS7438]	6.96
H-WDGPPENDMLLKEICGSLIP-OH [CS7432]	6.45
H-PLMQTELHQLVPEADPEEMA-OH [CS7430]	6.37
H-GTKALQLHSIAGRWPRMEPWVVESMSLGVP-OH [CS7415]	6.81
H-KKNITNLSRLVVRPDTDAVY-OH [CS7431]	6.69
